System: GR-ST
Experiment notes: cells
Format: functional, cell-based
Recorded conditions: Homo sapiens
Description: SANGER: Inhibition of human GR-ST cell growth in a cell viability assay.
The molecules listed here are annotated with their IC50.

Exercise: Give the reported IC50 for this molecule. Cc1cc([C@@H](C)Nc2ccccc2C(=O)O)c2nc(N3CCOCC3)cc(=O)n2c1
Solution: > 5.12 µM

Exercise: Supply measured IC50 of Cc1cc(Nc2cc(N3CCN(C)CC3)nc(Sc3ccc(NC(=O)C4CC4)cc3)n2)n[nH]1 in your reply.
Solution: > 2 µM

Exercise: Provide only the value of recorded IC50 for CS(=O)(=O)CCNCc1ccc(-c2ccc3ncnc(Nc4ccc(OCc5cccc(F)c5)c(Cl)c4)c3c2)o1
Solution: > 2 µM

Exercise: Note IC50 for the molecule shown: CC(=O)O[C@@H]1[C@@H](OC(C)=O)[C@@H](O)[C@H](Oc2c(-c3ccc(O)cc3)oc3cc(O)cc(O)c3c2=O)O[C@H]1C
Solution: > 10 µM

Exercise: Give IC50 for O=C(NOCC1CC1)c1ccc(F)c(F)c1Nc1ccc(I)cc1Cl
Solution: 7.4 µM

More entries:
Exercise: For the molecule Nc1ccn([C@@H]2O[C@H](CO)[C@@H](O)[C@@H]2O)c(=O)n1 , report IC50.
Solution: 0.385 µM

Exercise: Tell us which IC50 value is on record for Cn1cc(C2=C(c3ccc(Cl)cc3Cl)C(=O)NC2=O)c2ccccc21
Solution: > 10 µM

Exercise: Given COc1ccc(-c2ccc3c(N4CCOC[C@@H]4C)nc(N4CCOC[C@@H]4C)nc3n2)cc1CO , respond with its IC50.
Solution: 0.53 µM

###

Test system: EFM-19;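 further: growth inhibition of human EFM-19 cells, measured in a cell viability assay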
Experiment notes: cells
Type: functional, cell-based, Homo sapiens
Recorded conditions: Homo sapiens, EFM-19
Description: SANGER: Inhibition of human EFM-19 cell growth in a cell viability assay.
pIC50: −log10 of the molar value.
As shown below, each of these compounds has a reported pIC50 value.

Field: example entries. Status: answers known.
Exercise: Output measured pIC50 for this item: COc1cc([C@@H]2c3cc4c(cc3[C@@H](O[C@@H]3O[C@@H]5CO[C@@H](C)O[C@H]5[C@H](O)[C@H]3O)[C@H]3COC(=O)[C@H]23)OCO4)cc(OC)c1O [ETOPOSIDE]
Solution: 6.06

Exercise: # return recorded pIC50 for input COc1ccc(C2=N[C@@H](c3ccc(Cl)cc3)[C@@H](c3ccc(Cl)cc3)N2C(=O)N2CCNC(=O)C2)c(OC(C)C)c1 [NUTLIN-3]
Solution: < 5.10

Exercise: Dear colleague, please send me the reported pIC50 for COc1cc(F)c(F)c(Nc2ccc(I)cc2F)c1NS(=O)(=O)C1(CC(O)CO)CC1 (stereo not drawn) when you can.
Solution: < 5.30

Exercise: Return value of pIC50 for input CN(C)C/C=C/C(=O)Nc1cc2c(Nc3ccc(F)c(Cl)c3)ncnc2cc1O[C@H]1CCOC1 [AFATINIB] , no commentary.
Solution: < 6.30

Exercise: Report pIC50, nothing else, for this compound: O=c1cc(-c2cccc3c2Sc2ccccc2S3)oc(N2CCOCC2)c1 [KU-55933]
Solution: < 5.00

Next:
Exercise: Return reported pIC50. Input compound: O=C(c1cc(Cc2n[nH]c(=O)c3ccccc23)ccc1F)N1CCN(C(=O)C2CC2)CC1 [OLAPARIB]
Solution: < 5.30

Exercise: Read the entry CC(=O)O[C@@]12CO[C@@H]1C[C@H](O)[C@@]1(C)C(=O)[C@H](O)C3=C(C)[C@@H](OC(=O)[C@H](O)[C@@H](NC(=O)OC(C)(C)C)c4ccccc4)C[C@@](O)([C@@H](OC(=O)c4ccccc4)[C@H]21)C3(C)C [DOCETAXEL] and write its reported pIC50.
Solution: 8.67

Exercise: Provide pIC50 value for the following compound: C=CCc1cccc(/C=N/NC(=O)CN2CCN(Cc3ccccc3)CC2)c1O [PAC-1]
Solution: 5.71

###

# key: entry, value: IC50
Test system: SK-MEL-2
Experiment notes: cells
Format: functional, cell-based, Homo sapiens
Recorded conditions: Homo sapiens, SK-MEL-2
Description: SANGER: Inhibition of human SK-MEL-2 cell growth in a cell viability assay.

Below are worked cases with known answers.
Exercise: Answer with reported IC50 of CC1=C2C[C@H]3[C@@H](CC=C4C[C@@H](O)CC[C@@]43C)[C@@H]2CC[C@]12O[C@@H]1C[C@H](C)CN[C@H]1[C@H]2C
Solution: > 16 µM

Exercise: Provide one value: measured IC50 of Cn1cc(C2=C(c3ccc(Cl)cc3Cl)C(=O)NC2=O)c2ccccc21
Solution: > 10 µM

Exercise: Could you please provide reported IC50 for C=CCNC1=C2C[C@@H](C)C[C@H](OC)[C@H](O)[C@@H](C)/C=C(\C)[C@H](OC(N)=O)[C@@H](OC)/C=C\C=C(/C)C(=O)NC(=CC1=O)C2=O ? Thanks!
Solution: 0.0906 µM

Exercise: Answer with the recorded IC50 of Nc1ccn([C@@H]2O[C@H](CO)[C@@H](O)[C@@H]2O)c(=O)n1 only.
Solution: > 2 µM

New cases:
Exercise: # return recorded IC50 for input CC(=O)O[C@@H]1[C@@H](OC(C)=O)[C@@H](O)[C@H](Oc2c(-c3ccc(O)cc3)oc3cc(O)cc(O)c3c2=O)O[C@H]1C
Solution: > 10 µM

Exercise: Give a short answer stating reported IC50 for CN(Cc1cnc2nc(N)nc(N)c2n1)c1ccc(C(=O)N[C@@H](CCC(=O)O)C(=O)O)cc1 [METHOTREXATE] .
Solution: > 0.2 µM

Exercise: Output measured IC50 for this item: O=c1cc(-c2cccc3c2Sc2ccccc2S3)oc(N2CCOCC2)c1
Solution: > 10 µM

###

Listed here are compounds together with their documented pIC50.
Tested on: SK-CO-1
Experiment notes: cells
Type: functional, cell-based
Recorded conditions: Homo sapiens
Description: SANGER: Inhibition of human SK-CO-1 cell growth in a cell viability assay.
pIC50: −log10 of the molar value.

Exercise: Give the observed pIC50 of C[C@]1(O)C[C@@H](c2nc(-c3ccc4ccc(-c5ccccc5)nc4c3)c3c(N)nccn32)C1 [LINSITINIB] for SK-CO-1.
Solution: < 5.59

Next:
Exercise: Please tell me the measured pIC50 for COC(=O)CNC(=O)C(=O)OC ; system: SK-CO-1.
Solution: < 2.40

Exercise: Find the measured pIC50 of COc1cc([C@@H]2c3cc4c(cc3[C@@H](O[C@@H]3O[C@@H]5CO[C@@H](C)O[C@H]5[C@H](O)[C@H]3O)[C@H]3COC(=O)[C@H]23)OCO4)cc(OC)c1O [ETOPOSIDE] with SK-CO-1 as test system.
Solution: 5.79

Exercise: Find the measured pIC50 of C=CCc1cccc(/C=N/NC(=O)CN2CCN(Cc3ccccc3)CC2)c1O [PAC-1] with SK-CO-1 as test system.
Solution: < 5.59

Exercise: Fetch value of pIC50 on SK-CO-1 for Cc1cnc(-c2cnc(NCCNc3ccc(C#N)cn3)nc2-c2ccc(Cl)cc2Cl)[nH]1 [LADUVIGLUSIB] .
Solution: < 5.59

Exercise: Write pIC50 of Cc1ccc(Nc2nccc(N(C)c3ccc4c(C)n(C)nc4c3)n2)cc1S(N)(=O)=O [PAZOPANIB] ; system used: SK-CO-1;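 further: growth inhibition of SK-CO-1 cells, determined by a viability readout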
Solution: < 5.10

###

Tested on: ETK-1;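 further: growth inhibition of human ETK-1 cells, read out with a cell viability assay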
Experiment notes: cells
Format: functional, cell-based, Homo sapiens
Recorded conditions: Homo sapiens, ETK-1
Description: SANGER: Inhibition of human ETK-1 cell growth in a cell viability assay.
Label t when IC50 < 7 nM; otherwise f.

Study these solved cases before continuing.
Exercise: Identify whether the compound COC(=O)CNC(=O)C(=O)OC records IC50 below 7 nM.
Solution: f

Exercise: hey, is IC50 for Cn1cc(C2=C(c3ccc(Cl)cc3Cl)C(=O)NC2=O)c2ccccc21 [SB-216763] lower than 7 nM or not?
Solution: f

Next:
Exercise: Consider the compound CCC(=O)N1CCN(c2ccc(-n3c(=O)ccc4cnc5ccc(-c6cnc7ccccc7c6)cc5c43)cc2C(F)(F)F)CC1 [TORIN1] . Is its IC50 strictly less than 7 nM?
Solution: t

Exercise: Consider CCc1nc(N)nc(N)c1-c1ccc(Cl)cc1 [PYRIMETHAMINE] . Does its IC50 lie strictly below 7 nM?
Solution: f

Exercise: Hi there! Is IC50 for COc1cc([C@@H]2c3cc4c(cc3[C@@H](O[C@@H]3O[C@@H]5CO[C@@H](C)O[C@H]5[C@H](O)[C@H]3O)[C@H]3COC(=O)[C@H]23)OCO4)cc(OC)c1O [ETOPOSIDE] below 7 nM, do you know?
Solution: f

Exercise: hey, is IC50 for Cc1cc(Nc2cc(N3CCN(C)CC3)nc(Sc3ccc(NC(=O)C4CC4)cc3)n2)n[nH]1 [TOZASERTIB] lower than 7 nM or not?
Solution: f

###

Tested on: SK-MEL-24;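 further: growth inhibition read out by a cell viability assay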
Experiment notes: cells
Assay type: functional, cell-based
Recorded conditions: Homo sapiens
Description: SANGER: Inhibition of human SK-MEL-24 cell growth in a cell viability assay.
Listing of recorded IC50 by entry.

Before answering, review these 5 worked examples.
Exercise: # return recorded IC50 for entry O=C(NOCC1CC1)c1ccc(F)c(F)c1Nc1ccc(I)cc1Cl [CI-1040]
Solution: 0.328 µM

Exercise: Check the records and state IC50 for COc1cc(F)c(F)c(Nc2ccc(I)cc2F)c1NS(=O)(=O)C1(CC(O)CO)CC1 (stereo not drawn)
Solution: > 5 µM

Exercise: Tell me IC50 reported for COc1cc([C@@H]2c3cc4c(cc3[C@@H](O[C@@H]3O[C@@H]5CO[C@@H](C)O[C@H]5[C@H](O)[C@H]3O)[C@H]3COC(=O)[C@H]23)OCO4)cc(OC)c1O [ETOPOSIDE]
Solution: > 16 µM

Exercise: Provide only the value of recorded IC50 for Cc1cc([C@@H](C)Nc2ccccc2C(=O)O)c2nc(N3CCOCC3)cc(=O)n2c1 [AZD-6482]
Solution: > 5.12 µM

Exercise: Answer with reported IC50 of CN(C)C/C=C/C(=O)Nc1cc2c(Nc3ccc(F)c(Cl)c3)ncnc2cc1O[C@H]1CCOC1 [AFATINIB]
Solution: > 0.5 µM

Others:
Exercise: Report measured IC50; entry is COc1ccc(-c2ccc3c(N4CCOC[C@@H]4C)nc(N4CCOC[C@@H]4C)nc3n2)cc1CO [AZD-8055]
Solution: > 2 µM

Exercise: Give the value of IC50 reported for the following: O=c1cc(-c2cccc3c2Sc2ccccc2S3)oc(N2CCOCC2)c1 [KU-55933]
Solution: > 10 µM

Exercise: Identify the reported IC50 for the following entry. COc1ccc(C2=N[C@@H](c3ccc(Cl)cc3)[C@@H](c3ccc(Cl)cc3)N2C(=O)N2CCNC(=O)C2)c(OC(C)C)c1 [NUTLIN-3]
Solution: > 8 µM

The measured values listed here are drawn from ChEMBL document CHEMBL1201861.
